Assay: Spinal cord concentration after intravenous injection, UPLC coupled to mass spectrometry
Format: in vivo, rat
Conditions: lesion epicenter; T9 spinal cord injured rat, 10 nmol/g iv at 24 and 48 h after SCI, sacrificed 24 h later; read-out: concentration in spinal cord at the lesion epicenter
endpoint: concentration at 24 h after the last injection (nM)
Answers are plain numbers, in nM.

Give recorded concentration at 24 h after the last injection. COc1ccc(C(=O)N2CCN(C)CC2)cc1NC(=O)COc1cc(C)ccc1C(C)C [compound 1]
2700

###

Test: Spinal cord concentration after intravenous injection, UPLC coupled to mass spectrometry
Assay type: in vivo, rat
Settings: lumbar enlargement (distal to the lesion); T9 spinal cord injured rat, 10 nmol/g iv at 24 and 48 h after SCI, sacrificed 24 h later; read-out: concentration in the lumbar cord
endpoint: concentration at 24 h after the last injection (nM)
Answers are plain numbers, in nM.

Note concentration at 24 h after the last injection for the compound shown: COc1ccc(C(=O)N2CCN(C)CC2)cc1NC(=O)COc1cc(C)ccc1C(C)C
1900
